Tested on: green rice leafhoppers of the strain RN
Assay: Test Example 3: dust spray test (20 mesh metal gauze cylinder)
Assay type: in vivo, Nephotettix cincticeps
Details: Table 9; dust mixed with 81*; RN
Protocol: The insecticides in the form of dust were tested for insecticidal activity. The test for insecticidal activity was performed by the following procedure. […] The dust of a test compound (pulverized by means of a shaking pulverizer made by Taira Kosakusho, Ltd.) was applied onto the tube contents at a prescribed rate by spraying from outside the metal gauze by means of a bell-jar duster. […]
Measurement label: death ratio (%), mixture with Compound No. 81*

Measured death ratio (%), mixture with Compound No. 81* (green rice leafhoppers of the strain RN), entry `CCCCNC(=O)Oc1ccccc1OC(C)C` : 100%

Lab entry: green rice leafhoppers of the strain RN assay, compound CCNC(=O)Oc1ccccc1OC(C)C [Compound 82, 2-isopropoxyphenyl-N-ethylcarbamate] , death ratio (%), mixture with Compound No. 81* = 55.0%

Summary line: CCCNC(=O)Oc1ccccc1OC [Compound 77, 2-methoxyphenyl-N-n-propylcarbamate] , green rice leafhoppers of the strain RN, reported death ratio (%), mixture with Compound No. 81* = 80.0%

---
Reported green rice leafhoppers of the strain RN death ratio (%), mixture with Compound No. 81* for item CNC(=O)Oc1ccccc1OC [Compound 76, reference compound] was 35.0%

Form: item CCOc1cccc(OC(=O)NC)c1 [Compound 92, reference compound] ; test system green rice leafhoppers of the strain RN; death ratio (%), mixture with Compound No. 81*: 0%
